Values from paper PMC2846816

# target_or_test_system: TRPV4 (Sus scrofa)
# Sequence (B3VP30 1-871): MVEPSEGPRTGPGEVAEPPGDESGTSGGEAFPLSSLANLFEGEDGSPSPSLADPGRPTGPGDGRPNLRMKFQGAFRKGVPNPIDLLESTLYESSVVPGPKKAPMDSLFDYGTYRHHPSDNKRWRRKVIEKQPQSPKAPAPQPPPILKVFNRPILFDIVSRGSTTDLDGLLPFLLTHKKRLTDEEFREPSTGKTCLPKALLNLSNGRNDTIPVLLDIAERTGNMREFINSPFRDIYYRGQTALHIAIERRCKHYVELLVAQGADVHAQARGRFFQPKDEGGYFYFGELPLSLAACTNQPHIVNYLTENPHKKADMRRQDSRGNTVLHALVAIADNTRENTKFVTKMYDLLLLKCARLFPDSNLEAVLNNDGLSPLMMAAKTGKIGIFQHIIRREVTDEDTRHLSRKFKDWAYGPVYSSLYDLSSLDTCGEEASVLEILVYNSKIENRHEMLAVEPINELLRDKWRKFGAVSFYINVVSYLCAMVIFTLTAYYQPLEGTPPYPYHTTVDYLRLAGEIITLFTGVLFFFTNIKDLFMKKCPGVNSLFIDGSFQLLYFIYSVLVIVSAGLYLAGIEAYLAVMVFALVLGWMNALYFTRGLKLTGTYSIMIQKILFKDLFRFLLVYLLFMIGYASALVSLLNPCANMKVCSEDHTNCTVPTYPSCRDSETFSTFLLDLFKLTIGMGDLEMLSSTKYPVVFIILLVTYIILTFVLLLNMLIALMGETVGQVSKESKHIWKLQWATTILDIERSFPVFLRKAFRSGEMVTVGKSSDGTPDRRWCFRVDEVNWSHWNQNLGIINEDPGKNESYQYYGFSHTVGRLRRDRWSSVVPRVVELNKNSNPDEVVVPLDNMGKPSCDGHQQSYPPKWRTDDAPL
# assay_text: Fura-2 Ca2+ influx
parameter_measured: EC50

molecule_smiles=CCCCCCCCCC(=O)O[C@@H]1[C@@H](C)[C@@]2(O)[C@@H](C=C(CO)C[C@@]3(O)C(=O)C(C)=C[C@@H]23)[C@@H]2C(C)(C)[C@]12OC(=O)CCCCCCCCC parameter_measured=EC50 endpoint_result="~2000 nM"
